target system: T1, Oct6 DNA-binding domain (BD-Oct6) (Mus musculus (B6), UniProt P21952 317-416)
T1 sequence: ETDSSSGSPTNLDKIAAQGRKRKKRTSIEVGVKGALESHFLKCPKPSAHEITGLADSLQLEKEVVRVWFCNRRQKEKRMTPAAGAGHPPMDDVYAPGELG
test details: EMSA; 10% glycerol, 20 mM HEPES pH 7.8, 45 mM KCl, 10 mM NaCl, 1 mM EDTA, 1 mM DTT, 0.2 ug/uL BSA, 0.1% NP-40, 50 ng poly-dIdC; 20 ng each GST protein; room temperature 30 min (heterodimers 4 C); 6% PAGE 0.25x TBE
measurement setup: protein: recombinant; tags: GST (N-terminal, pGEX-6P-1); label: 32P-dCTP fill-in of the 5' (dG)5 overhangs of both strands (Methods; control probes are given with GGG)
readout kind: binding result

Example binders with recorded binding result:
- 113 (dsDNA) DNA 1: GGGGGACTAAGTCATTGTTTATTTCCGTGCTGTTCCCCC DNA 2: GGGGGAACAGCACGGAAATAAACAATGACTTAGTCCCCC: no binding
- 37 (dsDNA) DNA 1: GGGGGTTTCATGGTTTGTTAGCTATTCTCTTATCACCCCCC DNA 2: GGGGGGTGATAAGAGAATAGCTAACAAACCATGAAACCCCC: no binding
- 44 (dsDNA) DNA 1: GGGGGAAACCATGGGGGGTGGGCTGTAAACACAAAAAGGATTCCCCCC DNA 2: GGGGGGAATCCTTTTTGTGTTTACAGCCCACCCCCCATGGTTTCCCCC: no binding
- 5 (dsDNA) DNA 1: GGGGGTGTAGGTCATTGTGGCCTCAAATTTGGTAATGTAACCCCC DNA 2: GGGGGTTACATTACCAAATTTGAGGCCACAATGACCTACACCCCC: no binding
- 88 (dsDNA) DNA 1: GGGGGTGTTTTGTTTTGTTTTTTGTATTGGGAAGTGGGCCCCC DNA 2: GGGGGCCCACTTCCCAATACAAAAAACAAAACAAAACACCCCC: no binding
- 49 (dsDNA) DNA 1: GGGGGCTCTCTGATTTGTGAGTATTGACAGAGAATCCCCC DNA 2: GGGGGATTCTCTGTCAATACTCACAAATCAGAGAGCCCCC: no binding

Task: # lookup: binding result of 101 (dsDNA) DNA 1: GGGGGTGCCTCCTTTTGTGAGCTATTTATAATGCTAACCCCC DNA 2: GGGGGTTAGCATTATAAATAGCTCACAAAAGGAGGCACCCCC
Result: binds

Task: Any idea what its binding result is? The binder is 92 (dsDNA) DNA 1: GGGGGATATAATAATAAATCTTTAAAACAAAAAAAAAAACCCCC DNA 2: GGGGGTTTTTTTTTTTGTTTTAAAGATTTATTATTATATCCCCC
Result: binds

Task: What measured binding result goes with 4c (dsDNA) DNA 1: GGGGGTAAAATTAACAAACAAGTTACATTATCTAATATACACCCCC DNA 2: GGGGGTGTATATTAGATAATGTAACTTGTTTGTTAATTTTACCCCC ?
Result: binds
